These data points were gathered from patent US5508311A.

- STUDY_CONDITIONS: mouse, in vivo

[
  {
    "MOLECULE": "C#CCN(C)CCCC.Cl [Example 1-BuMP]",
    "fatality after oral administration": "no fatality"
  },
  {
    "MOLECULE": "C#CCN(C)CCCCC.O=C(O)C(=O)O [Example M-1-PP]",
    "fatality after oral administration": "no fatality"
  },
  {
    "MOLECULE": "C#CCN(C)C(C)CC.Cl.O=C(O)C(=O)O (racemic) [Example 2-BuMP]",
    "fatality after oral administration": "no fatality"
  },
  {
    "MOLECULE": "C#CCN(C)C(C)CCC.Cl.O=C(O)C(=O)O (stereo not shown) [Example M-2-PP]",
    "fatality after oral administration": "no fatality"
  }
]
